- ASSAY: gradient 5% acetonitrile 3 min, to 50% in 2 min, to 85% in 15 min, held 3 min, 100 µL/min
- ASSAY CONTEXT: column: Zorbax Extend-C18 2.1 x 50 mm; eluents: water / acetonitrile, 0.1% formic acid
Measured RP-LC retention time by item
Report as a plain number; the unit s is understood.

C#CCOCC1CCN(C(=O)Cc2noc3ccccc23)CC1 :: 761

# context switch: different compound, same RP-LC retention time
Record request: RP-LC retention time value, item "Cc1cnn(Cc2cc(C(=O)N3C[C@@H](CO)[C@H](N(C)C)C3)no2)c1" 566

====

- ASSAY: gradient 5% acetonitrile 3 min, to 50% in 2 min, to 85% in 15 min, held 3 min, 100 µL/min
- ASSAY CONTEXT: column: Zorbax Extend-C18 2.1 x 50 mm; eluents: water / acetonitrile, 0.1% formic acid
# RP-LC retention time listing for each entry below
Write the value in s as a bare number.

Some solved entries appear below for comparison.
CCN1CCN(c2cc(C)c3cc(NC(=S)NCc4ccccc4OC)ccc3n2)CC1 :: 605
COC(=O)c1ccc(-c2nc3cnccn3c2NC2CCCCC2)cc1 :: 973
COc1ccc2c(c1)c1ccc3c(c1n2C)C(=O)C=CC3=O :: 1120
COc1ccc(OC)c(NS(=O)(=O)c2cc3c(s2)CCN(C(=O)C2CC2)C3)c1 :: 821

# ---- query molecule ----
Report RP-LC retention time for "O=C1N(c2cccc(F)c2)c2ncccc2S(=O)(=O)N1Cc1ccc(F)cc1" please. 1040

====

# key: entry, value: RP-LC retention time
- ASSAY: gradient 5% acetonitrile 3 min, to 50% in 2 min, to 85% in 15 min, held 3 min, 100 µL/min
- ASSAY CONTEXT: column: Zorbax Extend-C18 2.1 x 50 mm; eluents: water / acetonitrile, 0.1% formic acid
Remember to put the unit after the number in your answer.

COC(=O)c1c(-c2cccc(Cl)c2)noc1NCc1ccco1 :: 1060 s
CCc1nc2c(c(=O)n1CC(=O)NCCCc1ccccc1)CN(Cc1ccccc1)CC2 :: 1050 s
Cc1cccc(CNC(=O)C2CCCN(c3cc(=O)n(C)c(=O)n3C)C2)c1 (stereo not given) :: 701 s

# input compound: "O=C(Nc1cnc(N2CCOCC2)nc1)c1cccc(Cl)c1" ; wanted: its RP-LC retention time 793 s

Item Cc1ccc(N2CCC(NC(=O)Nc3cccc(Br)c3)C2=O)cc1 (stereo not given) has what recorded RP-LC retention time? 955 s

Dear colleague, I am looking for the recorded RP-LC retention time of the following compound: "Cc1ccc(-n2ccnc2SCc2nc(-c3ccc(Br)cc3)no2)cc1" 1090 s

Which RP-LC retention time is listed for "O=C(Nc1nc(-c2cccs2)cs1)c1ccc2ncsc2c1" ? 874 s

Entry "O=C(O)c1ccc2c(c1Nc1ccccc1)C(=O)c1ccccc1C2=O" : reported RP-LC retention time = ? 1020 s

Item Cn1nnc2cc(-c3noc(C4CCCO4)n3)ccc21 (stereo not given) has what recorded RP-LC retention time? 730 s

====

- ASSAY: gradient 5% acetonitrile 3 min, to 50% in 2 min, to 85% in 15 min, held 3 min, 100 µL/min
- ASSAY CONTEXT: column: Zorbax Extend-C18 2.1 x 50 mm; eluents: water / acetonitrile, 0.1% formic acid
Listed below: RP-LC retention time values for each entry.

Please review the following examples before continuing.
CCNC(=O)N1CCC(CCOc2cccnc2)CC1 :: 579 s
CCN1CCn2cc(S(=O)(=O)Nc3ccc(F)cc3)cc2C1=O :: 696 s
O=C(CCCN1C(=O)c2cccc3cccc(c23)C1=O)NC1CCCCC1 :: 812 s
CC(=O)c1cccc(NC(=O)c2cn(C)cc3c(=O)n(-c4ccccc4)nc2-3)c1 :: 826 s

# input for lookup
So what's the measured RP-LC retention time for this one? "CC(C)Cn1c(=O)c(-c2ccc(C(=O)N3CCC4(CC3)OCCO4)cc2)nc2ccccc21" 987 s

====

- ASSAY: gradient 5% acetonitrile 3 min, to 50% in 2 min, to 85% in 15 min, held 3 min, 100 µL/min
- ASSAY CONTEXT: column: Zorbax Extend-C18 2.1 x 50 mm; eluents: water / acetonitrile, 0.1% formic acid
Sorting guide: entries reporting RP-LC retention time beneath 900 s go in the Fulfilled pile, the rest go in the Not fulfilled pile.

Cc1cc(C)c(S(=O)(=O)N(CCN2CCCCC2C)CC(=O)N2CCNCC2)c(C)c1 (centres undefined) :: Fulfilled
Cc1ccc(C)c(N2CCN(C(=O)C3CCCN(c4ncnc5c4nc4n5CCCCC4)C3)CC2)c1 (centres undefined) :: Not fulfilled
O=C(c1cccc(Cl)c1)N1N=C(c2ccco2)CC1c1ccco1 (centres undefined) :: Not fulfilled
Cc1ccccc1NC(=O)Cn1c(C(F)(F)F)nc2cc3c(cc21)OCCO3 :: Fulfilled
O=C(c1ccoc1)N1CCCCC1c1nc(-c2cnccn2)no1 (centres undefined) :: Fulfilled
COc1ccc(S(=O)(=O)N2CCC(Cc3nncn3C)CC2)cc1 :: Fulfilled
Cc1ccc(-n2cc(C3=CCN(CC(=O)N4CCN(c5ccccn5)CC4)CC3)cn2)cc1 :: Fulfilled
CC(C)(C)c1ccc(C(=O)Nc2ccc(S(N)(=O)=O)cc2)cc1 :: Not fulfilled

Problem: For the molecule "COc1cc(NC(=O)CN2C(=O)C(C)(C)c3ccccc32)cc(OC)c1OC" , is RP-LC retention time under 900 s? Fulfilled

In plain terms, does "Cn1cnc2c(C(=O)NC3CCCCCC3)nn(-c3ccc(Cl)cc3)c2c1=O" come in under 900 s for RP-LC retention time? Not fulfilled

# strict comparison: is reported RP-LC retention time < 900 s? input = "O=C(NCCn1ncc2c(=O)n(Cc3cccc(Cl)c3)cnc21)c1cc2ccccc2o1" Fulfilled

Problem: For the molecule CCC(C)NC(=O)c1cnn(-c2ccc(-c3nc(C)no3)cn2)c1C (centres undefined) , is RP-LC retention time under 900 s? Fulfilled

I wonder whether "Cc1sc2ncnc(SCC(=O)Nc3ccc(S(N)(=O)=O)cc3)c2c1C" has RP-LC retention time below 900 s. Can you tell? Fulfilled

Report whether reported RP-LC retention time is lower than 900 s (strictly) for "COc1ccccc1-c1noc(Cn2c(=O)n(-c3ccc(Cl)cc3)c(=O)c3sccc32)n1" Not fulfilled

Hello, I'm reviewing records and need to know if RP-LC retention time of "Cc1cccc(NC(=O)N2CCC(C)(C(=O)NCc3ccc(F)cc3)CC2)c1C" is below 900 s. Could you check? Fulfilled

Does O=C(NCc1ccc(F)cc1F)c1nnn2c1COC(c1ccc(Cl)cc1)C2 (centres undefined) have RP-LC retention time strictly under 900 s? Not fulfilled

Please state whether RP-LC retention time is below 900 s for "Cn1ccc2ccn(CC(=O)Nc3ccccc3)c(=O)c21" Fulfilled

Please determine if "CCOC(=O)c1[nH]c(C)c(C(=O)NCCN(C)C)c1C" is below 900 s in terms of RP-LC retention time. Fulfilled

====

- ASSAY: gradient 5% acetonitrile 3 min, to 50% in 2 min, to 85% in 15 min, held 3 min, 100 µL/min
- ASSAY CONTEXT: column: Zorbax Extend-C18 2.1 x 50 mm; eluents: water / acetonitrile, 0.1% formic acid
// reported RP-LC retention time per item
Report only the number, with the unit s understood.

O=C(Nc1nc(C(=O)N2CCN(c3ncccn3)CC2)co1)c1ccccc1 :: 632
CCCc1nc(-c2c(C)cc(C)nc2NC(=O)c2cccc(Cl)c2)no1 :: 986
COc1ccc(-c2cc(C(=O)Nc3cc(Cl)ccc3C)no2)cc1 :: 1150
COc1ccccc1-c1noc(C2CCCN2C(=O)Nc2cccc(SC)c2)n1 (stereo not given) :: 908
CCCn1cc(S(=O)(=O)Nc2cccc(F)c2)c2cccnc21 :: 883

So what's the measured RP-LC retention time for this one? "CNC(=O)C1CCN(c2nc3ccc(-c4ccc(OC)cc4)nc3s2)CC1" 771

I would be grateful if you could share the reported RP-LC retention time for "CC(C)c1ccc(S(=O)(=O)N2CCC(C)(C(=O)NCc3ccccc3)CC2)cc1" . 1050

If you can, please state the reported RP-LC retention time value of "COc1ccc(CNC(=O)CN2C(=O)CSc3cccn3-c3ccccc32)c(OC)c1" . 868

What value of RP-LC retention time has been reported for the following compound? Cc1ccc(N2CC(c3noc(-c4ccc(C)cc4C)n3)CC2=O)cc1 (stereo not given) 1190

Returns the measured RP-LC retention time for the input compound. Input: COc1ccc(Cl)cc1N1CC(c2nc(-c3ccccn3)no2)CC1=O (stereo not given) 724

====

The entries below come with measured RP-LC retention time values attached.
- ASSAY: gradient 5% acetonitrile 3 min, to 50% in 2 min, to 85% in 15 min, held 3 min, 100 µL/min
- ASSAY CONTEXT: column: Zorbax Extend-C18 2.1 x 50 mm; eluents: water / acetonitrile, 0.1% formic acid
// units = s; emit number, no label

Cc1ccc(NS(=O)(=O)c2cn(CC(C)C)c3ncccc23)c(C)c1 :: 1050
Cc1nc(Nc2ccc(F)cn2)sc1C(=O)N1CCC(C(N)=O)(N2CCCCC2)CC1 :: 590
CC(C(=O)Nc1ccc(Cl)cc1)C1CCN(C(=O)Nc2ccccc2)CC1 (centres undefined) :: 910

For the compound shown here, "CCc1ccccc1NC(=O)N1CCC(N(CCC(C)C)C2CCOCC2)CC1" , give the reported RP-LC retention time. 665

GET /values?readout=RP-LC retention time&item= "CCc1nnc2cc(N3CCN(C(=O)Nc4ccccc4Cl)CC3)cnn12" 548

Please report the recorded RP-LC retention time for "Cc1ccc(-c2noc(Cn3c(=O)n(Cc4ccccc4Cl)c(=O)c4sccc43)n2)cc1C" . 1290

Item under review: "O=S(=O)(c1cccnc1)N1CCC(c2nnc(-c3ccc(F)cc3)o2)CC1" . Reported RP-LC retention time? 734

Using the record for "CCOC(=O)c1ncoc1-c1ccccc1C(=O)NC1CCCCC1" , report its RP-LC retention time. 770

Reported RP-LC retention time for CC(=O)N1CCc2cc(N3CC(C(=O)Nc4ccccc4C(C)C)CC3=O)ccc21 (centres undefined) : what is it? 728
